Molecular target: T1, CD81 (UniProt P60033 1-236, limits assumed)
T1 construct: whole, on cells; also called CD81 receptor
T1 sequence (looked up): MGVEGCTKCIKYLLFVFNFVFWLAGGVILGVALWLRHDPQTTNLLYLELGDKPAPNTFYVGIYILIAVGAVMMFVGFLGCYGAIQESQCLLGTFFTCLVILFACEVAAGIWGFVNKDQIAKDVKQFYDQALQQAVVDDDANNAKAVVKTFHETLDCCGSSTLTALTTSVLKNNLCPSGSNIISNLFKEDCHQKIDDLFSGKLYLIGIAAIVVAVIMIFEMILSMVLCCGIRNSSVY
Assay: cell ELISA;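 also: antibody binding to HuH7 cells expressing CD81 versus a CD81-negative HuH7 control line, bound antibody detected by secondary reagent, absorbance at 450 nm with 620 nm reference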
metric: ELISA data
Reply with the value as a number alone.

Problem: What does the record list as ELISA data for CD81K13 HC CD81K13 / LC 1b-hVK_3_15 (antibody, V domains shown, human constant region) VH: EVRLHQSAAQLVQPGASVRLSCTTSGFNFKDSYLHWVKQRPAQGLEWIGRIDTGNGNVKFDPKFQDKATITTDIPSMTAYLHLSNLTSEDTAVYYCVPYGYGFHSWGDGTTLTVSS VL: EIVMTQSPATLSVSPGERATLSCRASENIYRTLAWYQQKPGQAPRLLIYGATTLADGIPARFSGSGSGTEFTLTISSLQSEDFAVYYCQHFWGTPWTFGQGTKVEIK ?
Solution: 0.86

Problem: Looking for the measured ELISA data of CD81K13 HC 01-hVH_1_f / LC 01-hVK_3_15 (antibody, V domains shown, human constant region) VH: EVQLVQSGAEVKKPGATVKISCKVSGYTFTDSYMHWVQQAPGKGLEWMGRIDTGNGNVKFDPKFQGRVTITADTSTDTAYMELSSLRSEDTAVYYCAPYGYGFHSWGQGTLVTVSS VL: EIVMTQSPATLSVSPGERATLSCRASENIYRTLAWYQQKPGQAPRLLIYGATTRATGIPARFSGSGSGTEFTLTISSLQSEDFGVYYCQHFWGTPWTFGQGTKVEIK , can you help?
Solution: 0.527

Problem: Name the recorded ELISA data for CD81K13 HC 06-hVH_1_3 / LC 5b-hVK_1_39 (antibody, V domains shown, human constant region) VH: QVQLVQSGAEVKKPGASVKVSCKASGYTFKDSYLHWVRQAPGQRLEWMGRIDTGNGNVKFDPKFQGRVTITTDTSASTAYMELSSLRSEDTAVYYCAPYGYGFHSWGQGTLVTVSS VL: DIQMTQSPSSLSASVGDRVTITCRASENIYRTLAWYQQKPGKAPKLLIYGATTLADGVPSRFSGSGSGTDFTLTISSLQPEDFATYYCQHFWGTPWTFGQGTKVEIK .
Solution: 0.388

Problem: Which ELISA data is reported for this binder? CD81K13 HC 5b-hVH_1_69 / LC 5b-hVK_1_39 (antibody, V domains shown, human constant region) VH: QVQLVQSGAELVKPGSSVKVSCKASGFNFKDSYLHWVRQAPGQGLEWMGRIDTGNGNVKFDPKFQGRVTITTDESTSTAYMELSSLRSEDTAVYYCVPYGYGFHSWGQGTLVTVSS VL: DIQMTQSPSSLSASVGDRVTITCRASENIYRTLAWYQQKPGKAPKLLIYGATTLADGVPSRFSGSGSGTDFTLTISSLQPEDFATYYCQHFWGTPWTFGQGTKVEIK
Solution: 0.463

Problem: # get_value(readout='ELISA data', item= CD81K13 HC 02-hVH_1_3 / LC 06-hVK_1_39 (antibody, V domains shown, human constant region) VH: QVQLVQSGAEVKKPGASVKVSCKASGYTFTDSYMHWVRQAPGQRLEWMGRIDTGNGNTKYSQKFQGRVTITTDTSASTAYMELSSLRSEDTAVYYCAPYGYGFHSWGQGTLVTVSS VL: DIQMTQSPSSLSASVGDRVTITCRASENIYRTLAWYQQKPGKAPKLLIYAATTLASGVPSRFSGSGSGTDFTLTISSLQPEDFGTYYCQHFWGTPWTFGQGTKVEIK )
Solution: 0.251
